molecular target: chimeric human RORγ-Gal4 receptor (Homo sapiens); assay: transient transactivation assay (RORγ-Gal4 luciferase reporter); assay type: cell-based; conditions: Cos-7 cells transfected with RORγ-Gal4 and 5Gal4 pGL3 TK Luc reporter; overnight incubation; T0901317 at 10^-5 M as reference; read-out: IC50
readout: IC50

{"compound": "Cc1cc(OC(F)(F)F)cc2ccn(C(=O)c3c(Cl)ccc(C(=O)N4CCC(CC(=O)O)CC4)c3Cl)c12 [EL]", "study_system": "chimeric human RORγ-Gal4 receptor (Homo sapiens)", "IC50": "< 0.1 µM"}
{"compound": "Cc1cc(C#N)cc2c1cc(Cc1c(Cl)ccc(O[C@H]3CC[C@H](C(=O)O)C3)c1Cl)n2C (relative stereo) [Example AG]", "study_system": "chimeric human RORγ-Gal4 receptor (Homo sapiens)", "IC50": "0.1 to 0.5 µM"}
{"compound": "Cn1c(Cc2c(Cl)ccc(C(=O)N3CCOCC3)c2Cl)cc2c(Cl)cc(Cl)cc21 [EZ]", "study_system": "chimeric human RORγ-Gal4 receptor (Homo sapiens)", "IC50": "< 0.1 µM"}
{"compound": "CNC(=O)c1cc(C)c2cc(Cc3c(Cl)ccc(C(=O)N4CCOCC4)c3Cl)n(C)c2c1 [Example FP]", "study_system": "chimeric human RORγ-Gal4 receptor (Homo sapiens)", "IC50": "< 0.1 µM"}
{"compound": "Cc1cc(C(F)(F)F)nc2c1cc(Cc1c(Cl)ncc(C(=O)N3CCN(S(C)(=O)=O)CC3)c1Cl)n2C [Example GE]", "study_system": "chimeric human RORγ-Gal4 receptor (Homo sapiens)", "IC50": "0.1 to 0.5 µM"}

Enquiry: Value lookup for IC50; key = Cn1c(C(=O)c2c(Cl)ccc(C(=O)N3CCOCC3)c2Cl)cc2ncc(C(F)(F)F)cc21 [CP]
Return: 1 to 10 µM

Enquiry: Now give it for Cc1cc(C(F)(F)F)cc2c1cc(Cc1c(Cl)ccc(C(=O)N3CC(CC(=O)O)C3)c1Cl)n2C [Example B-9] too.
Return: < 0.1 µM

Enquiry: Next compound: Cn1c(Cc2c(Cl)ccc(C(=O)N3CCC(CC(=O)O)CC3)c2Cl)cc2ccc(OC(F)(F)F)cc21 [Example FI]
Return: < 0.1 µM

----------
target: chimeric human RORγ-Gal4 receptor (Homo sapiens, UniProt P51449); assay: transient transactivation assay (RORγ-Gal4 luciferase reporter); assay type: cell-based; conditions: Cos-7 cells transfected with RORγ-Gal4 and 5Gal4 pGL3 TK Luc reporter; overnight incubation; T0901317 at 10^-5 M as reference; read-out: IC50
Sequence (P51449 269-508 limits assumed, change not shown): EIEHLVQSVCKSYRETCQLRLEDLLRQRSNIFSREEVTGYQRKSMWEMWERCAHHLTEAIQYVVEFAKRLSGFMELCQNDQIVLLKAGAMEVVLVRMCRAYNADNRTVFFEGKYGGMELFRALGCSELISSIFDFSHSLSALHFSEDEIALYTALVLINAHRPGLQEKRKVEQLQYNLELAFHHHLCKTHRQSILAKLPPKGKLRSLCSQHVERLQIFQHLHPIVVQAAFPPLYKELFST
readout: IC50

{"molecule": "Cc1cc(OC(F)F)cc2ccn(Cc3c(Cl)ccc(C(=O)N4CCC(CC(=O)O)CC4)c3Cl)c12", "study_system": "chimeric human RORγ-Gal4 receptor (Homo sapiens, UniProt P51449)", "readout": "IC50", "result": "< 100 nM"}

Enquiry: Lab note: need IC50 with chimeric human RORγ-Gal4 receptor (Homo sapiens, UniProt P51449) for entry Cn1c(Cc2c(Cl)ccc(C(=O)N3CCOCC3)c2Cl)cc2cccnc21 , please look it up.
Return: 1000 to 10000 nM

Enquiry: How about Cc1cc(C(F)(F)F)cc2c1cc(Cc1c(Cl)ccc(C(=O)N3CCC(CC(=O)O)CC3)c1Cl)n2C ?
Return: < 100 nM

Enquiry: And for Cc1cc(C#N)cc2c1cc(Cc1c(Cl)ccc(C(=O)N3CCC(C(C)O)CC3)c1Cl)n2C (stereo not shown) ?
Return: < 100 nM

Enquiry: Ok, now Cc1cc(C(F)(F)F)cc2c1cc(Cc1c(Cl)ccc(C(=O)N3CCOCC3)c1Cl)n2C
Return: < 100 nM

Enquiry: And the next one, Cc1ccc(C(=O)N2CCOCC2)c(C)c1Cc1nc2c(C)cc(Br)cc2n1C ?
Return: 100 to 500 nM

Enquiry: What would you report for Cc1cc(C(F)(F)F)cc2c1nc(Cc1c(Cl)ccc(CN3CCC(C(C)(C)CO)CC3)c1Cl)n2C ?
Return: 100 to 500 nM

Enquiry: Try this molecule too: Cc1cn(C(=O)c2c(Cl)ccc(C(=O)N3CCC(CC(=O)O)CC3)c2Cl)c2c(C)nc(C(F)(F)F)cc12
Return: < 100 nM

Enquiry: // next record COc1cc(C)c2cc(Cc3c(Cl)ccc(C(=O)N4CCC(CC(=O)O)CC4)c3Cl)n(C)c2c1
Return: < 100 nM

Enquiry: Would you kindly repeat that for Cc1cn(C(=O)c2c(Cl)ccc(C(=O)N3CCC(C(=O)O)CC3)c2Cl)c2c(C)cc(C(F)(F)F)cc12 ?
Return: < 100 nM

Enquiry: What about Cn1c(Cc2c(Cl)cnc(C(=O)N3CCC(CC(=O)O)CC3)c2Cl)cc2ccc(OC(F)(F)F)cc21 ?
Return: < 100 nM

Enquiry: Next entry: Cc1cc(C(F)(F)F)cc2c1nc(Cc1c(Cl)ccc(C(=O)N3C[C@@H]4[C@H](C3)[C@H]4C(=O)O)c1Cl)n2C
Return: 1000 to 10000 nM

Enquiry: Cool, now O=C(O)CC1CCN(C(=O)c2ccc(Cl)c(Cn3ccc4cc(C5CC5)cc(F)c43)c2Cl)CC1
Return: < 100 nM

Enquiry: Also Cc1cc(C(F)(F)F)cc2c1nc(Cc1c(Cl)ccc(CN3CCC(C(C)O)CC3)c1Cl)n2C (stereo not shown) , if possible.
Return: 100 to 500 nM

Enquiry: And the next one, Cc1cc(C#N)cc2c1nc(Cc1c(Cl)ccc(C(=O)N3CCC(C(C)(C)CO)CC3)c1Cl)n2C ?
Return: 100 to 500 nM

Enquiry: Also, Cc1cn(Cc2c(Cl)ccc(C(=O)N3CC[C@@H](C(=O)O)[C@@H](C)C3)c2Cl)c2c(C)cc(C(F)(F)F)cc12 please.
Return: < 100 nM

These measurements were taken from patent US10106501B2.
